These measurements were taken from ChEMBL document CHEMBL5724914.

experiment: The drug is tested on WLS-006 corresponding to human gut metagenome with ENA study accession number: PRJEB37062 and ENA sample accession number: ERS12561741 for biotransformation under anaerobic condition. The drug concentrations were measured over 9 timepoints collected between 0 and 24 hours of incubation by liquid-chromatography-coupled mass spectrometry (LC–MS); settings: 2 µM; note: call rule not given here
READOUT_TYPE: Bacterial Biotransformation

| COMPOUND | READOUT_VALUE |
| --- | --- |
| CN(C)CCOC(C)(c1ccccc1)c1ccccn1.O=C(O)CCC(=O)O (stereo not drawn) [DOXYLAMINE SUCCINATE] | Compound NOT metabolized |
| CCOC(=O)[C@H](CCc1ccccc1)N[C@@H](C)C(=O)N1Cc2ccccc2C[C@H]1C(=O)O | Compound metabolized |
| CC(=O)OCC(=O)[C@@]1(OC(C)=O)[C@@H](C)C[C@H]2[C@@H]3C[C@H](F)C4=CC(=O)C=C[C@]4(C)[C@@]3(F)[C@@H](O)C[C@@]21C [DIFLORASONE DIACETATE] | Compound metabolized |
| CCCN1C[C@H](CSC)C[C@@H]2c3cccc4[nH]cc(c34)C[C@H]21.CS(=O)(=O)O [PERGOLIDE MESYLATE] | Compound NOT metabolized |
| CCCN(CCC)CCc1cccc2c1CC(=O)N2 | Compound NOT metabolized |

Could you tell me which Bacterial Biotransformation is on file for `C[C@]12C=CC(=O)C=C1CC[C@@H]1[C@@H]2C(=O)C[C@@]2(C)[C@H]1CC[C@]2(O)C(=O)CO` ?
Compound metabolized

Next: `CN[C@H]1CC[C@@H](c2ccc(Cl)c(Cl)c2)c2ccccc21`
Compound metabolized

And what about the compound CC1=C(CC(=O)O)c2cc(F)ccc2/C1=C\c1ccc([S+](C)[O-])cc1 (stereo not drawn) ?
Compound metabolized

Please answer likewise for CC(C)[C@H]1CC[C@H](C(=O)N[C@H](Cc2ccccc2)C(=O)O)CC1 [NATEGLINIDE]
Compound metabolized

Then this compound: `COc1ccc([C@@H]2Sc3ccccc3N(CCN(C)C)C(=O)[C@@H]2OC(C)=O)cc1`
Compound metabolized

* * *

assay: The drug is tested on WLS-370 corresponding to human gut metagenome with ENA study accession number: PRJEB37062 and ENA sample accession number: ERS12561793 for biotransformation under anaerobic condition. The drug concentrations were measured over 9 timepoints collected between 0 and 24 hours of incubation by liquid-chromatography-coupled mass spectrometry (LC–MS); details: 2 µM
READOUT_TYPE: Bacterial Biotransformation

Examples with answers:
| COMPOUND | READOUT_VALUE |
| --- | --- |
| CSc1ccc2c(c1)C(N1CCN(C)CC1)Cc1ccccc1S2.O=C(O)/C=C\C(=O)O (stereo not given) | Compound NOT metabolized |
| COc1cc(C(=O)NCc2ccc(OCCN(C)C)cc2)cc(OC)c1OC [TRIMETHOBENZAMIDE] | Compound NOT metabolized |
| OC(c1cc(C(F)(F)F)nc2c(C(F)(F)F)cccc12)C1CCCCN1 (stereo not given) [MEFLOQUINE] | Compound metabolized |
| CC(=O)CCCCn1c(=O)c2c(ncn2C)n(C)c1=O [PENTOXIFYLLINE] | Compound NOT metabolized |
| Clc1cccc(Cl)c1N=C1NCCN1 [CLONIDINE] | Compound NOT metabolized |
| CC(=O)O[C@H]1C(=O)[C@@]2(C)[C@H]([C@H](OC(=O)c3ccccc3)[C@]3(O)C[C@H](OC(=O)[C@H](O)[C@@H](NC(=O)c4ccccc4)c4ccccc4)C(C)=C1C3(C)C)[C@]1(OC(C)=O)CO[C@@H]1C[C@@H]2O [PACLITAXEL] | Compound NOT metabolized |
| Br.CN1CCC[C@@H]1Cc1c[nH]c2ccc(CCS(=O)(=O)c3ccccc3)cc12 [ELETRIPTAN HYDROBROMIDE] | Compound NOT metabolized |
| CC(C)c1nc(N(C)S(C)(=O)=O)nc(-c2ccc(F)cc2)c1/C=C/[C@@H](O)C[C@@H](O)CC(=O)[O-].CC(C)c1nc(N(C)S(C)(=O)=O)nc(-c2ccc(F)cc2)c1/C=C/[C@@H](O)C[C@@H](O)CC(=O)[O-].[Ca+2] [ROSUVASTATIN CALCIUM] | Compound metabolized |
| CCN(C)C(=O)Oc1cccc([C@H](C)N(C)C)c1.O=C(O)C(O)C(O)C(=O)O [RIVASTIGMINE TARTRATE] | Compound NOT metabolized |
| COC(=O)[C@H](c1ccccc1Cl)N1CCc2sccc2C1.O=S(=O)(O)O [CLOPIDOGREL BISULFATE] | Compound metabolized |

Bench note: what Bacterial Biotransformation did CC[C@H](C)C(=O)O[C@H]1CCC=C2C=C[C@H](C)[C@H](CC[C@@H]3C[C@@H](O)CC(=O)O3)[C@H]21 [MEVASTATIN] show?
Compound NOT metabolized

Again, but for CN1[C@@H]2CC[C@H]1C[C@@H](OC(=O)c1c[nH]c3ccccc13)C2 [TROPISETRON]
Compound NOT metabolized

# iterate: CCCN1C[C@H](CSC)C[C@@H]2c3cccc4[nH]cc(c34)C[C@H]21.CS(=O)(=O)O [PERGOLIDE MESYLATE]
Compound metabolized

* * *

details: human gut metagenome, 24 h, 2 µM
READOUT_TYPE: Bacterial Biotransformation

See these solved cases before continuing.
| MOLECULE | Bacterial Biotransformation |
| --- | --- |
| CC#CCn1c(N2CCC[C@@H](N)C2)nc2c1c(=O)n(Cc1nc(C)c3ccccc3n1)c(=O)n2C [LINAGLIPTIN] | Compound NOT metabolized |
| COc1cc2nc(N3CCN(C(=O)C4COc5ccccc5O4)CC3)nc(N)c2cc1OC.CS(=O)(=O)O (stereo not given) [DOXAZOSIN MESYLATE] | Compound metabolized |
| CC(NC(C)(C)C)C(=O)c1cccc(Cl)c1 (stereo not given) [BUPROPION] | Compound NOT metabolized |
| CC(=O)OCC(CCn1cnc2cnc(N)nc21)COC(C)=O [FAMCICLOVIR] | Compound metabolized |

Note: attention shifts to another entry.
Reported Bacterial Biotransformation for `CN1CCC(OC(c2ccccc2)c2ccccc2)CC1` : what is it?
Compound NOT metabolized

* * *

experiment: The drug is tested on WLS-006 corresponding to human gut metagenome with ENA study accession number: PRJEB37062 and ENA sample accession number: ERS12561741 for biotransformation under anaerobic condition. The drug concentrations were measured over 9 timepoints collected between 0 and 24 hours of incubation by liquid-chromatography-coupled mass spectrometry (LC–MS); conditions: 2 µM
READOUT_TYPE: Bacterial Biotransformation

Study these solved cases before continuing.
| MOLECULE | Bacterial Biotransformation |
| --- | --- |
| Nc1nc(N)nc(-c2cc(Cl)ccc2Cl)n1.O=C(O)/C=C\C(=O)O [IRSOGLADINE MALEATE] | Compound NOT metabolized |
| CCN(CC)CCNC(=O)c1cc(S(C)(=O)=O)ccc1OC [TIAPRIDE] | Compound NOT metabolized |
| CC12CC3CC(C)(C1)CC(N)(C3)C2 [MEMANTINE] | Compound NOT metabolized |
| O=P1(N(CCCl)CCCl)NCCCO1 (stereo not drawn) [CYCLOPHOSPHAMIDE ANHYDROUS] | Compound NOT metabolized |
| COc1ccccc1OCCNCC(O)COc1cccc2[nH]c3ccccc3c12 (stereo not drawn) [CARVEDILOL] | Compound metabolized |
| COC(=O)C(c1ccccc1)C1CCCCN1 (stereo not drawn) [METHYLPHENIDATE] | Compound NOT metabolized |
| CCN1CCCC1CNC(=O)c1cc(S(=O)(=O)CC)c(N)cc1OC (stereo not drawn) [AMISULPRIDE] | Compound NOT metabolized |

Consider the molecule shown here: CC(C)C[C@H]1C(=O)N2CCC[C@H]2[C@]2(O)O[C@](NC(=O)[C@@H]3C=C4c5cccc6[nH]c(Br)c(c56)C[C@H]4N(C)C3)(C(C)C)C(=O)N12.CS(=O)(=O)O [BROMOCRIPTINE MESYLATE] What is its recorded Bacterial Biotransformation?
Compound metabolized

* * *

conditions: human gut metagenome, 24 h, 2 µM
READOUT_TYPE: Bacterial Biotransformation

| MOLECULE | Bacterial Biotransformation |
| --- | --- |
| CN1[C@@H]2CC[C@H]1C[C@@H](OC(=O)[C@H](CO)c1ccccc1)C2 [HYOSCYAMINE] | Compound metabolized |
| CCOC(=O)[C@H](CCc1ccccc1)N[C@@H](C)C(=O)N1Cc2ccccc2C[C@H]1C(=O)O | Compound metabolized |
| OC(c1cc(C(F)(F)F)nc2c(C(F)(F)F)cccc12)C1CCCCN1 (configuration not stated) [MEFLOQUINE] | Compound metabolized |
| O=C(CCCN1CCC2(CC1)C(=O)NCN2c1ccccc1)c1ccc(F)cc1 [SPIPERONE] | Compound metabolized |
| CCN(C(C)=O)c1cccc(-c2ccnc3c(C#N)cnn23)c1 [ZALEPLON] | Compound metabolized |
| CCOc1ccccc1OCCN[C@H](C)Cc1ccc(OC)c(S(N)(=O)=O)c1.Cl [TAMSULOSIN HYDROCHLORIDE] | Compound metabolized |
| COc1ccc(CN2CCNCC2)c(OC)c1OC.Cl.Cl [TRIMETAZIDINE DIHYDROCHLORIDE] | Compound NOT metabolized |
| Cc1cc(C)cc(OCC2CNC(=O)O2)c1 (configuration not stated) [METAXALONE] | Compound metabolized |

Recorded Bacterial Biotransformation for C#C[C@]1(OC(C)=O)CC[C@H]2[C@@H]3CCC4=CC(=O)CC[C@@H]4[C@H]3CC[C@@]21C [NORETHINDRONE ACETATE] , please?
Compound metabolized

Consider next the molecule `CN1CCC(OC(c2ccccc2)c2ccccc2)CC1` in the same way.
Compound NOT metabolized

For O=C(O)CCC(=O)O.O=C(O[C@H]1CN2CCC1CC2)N1CCc2ccccc2[C@@H]1c1ccccc1 [SOLIFENACIN SUCCINATE] then?
Compound metabolized

Follow-up item: COc1ccnc(C[S+]([O-])c2nc3ccc(OC(F)F)cc3[nH]2)c1OC (configuration not stated) [PANTOPRAZOLE]
Compound metabolized

What about this molecule? Cc1ccccc1C(OCCN(C)C)c1ccccc1.O=C(O)CC(O)(CC(=O)O)C(=O)O (configuration not stated) [ORPHENADRINE CITRATE]
Compound metabolized

Next up: CN(C)C(=O)Oc1cccc([N+](C)(C)C)c1.[Br-] [NEOSTIGMINE BROMIDE]
Compound NOT metabolized

Query CCc1oc2ccccc2c1C(=O)c1cc(Br)c(O)c(Br)c1 [BENZBROMARONE] next
Compound metabolized

How about this molecule: C#C[C@]1(OC(C)=O)CC[C@H]2[C@@H]3CCC4=C/C(=N/O)CC[C@@H]4[C@H]3CC[C@@]21CC [NORGESTIMATE]
Compound metabolized

Field entry: C[N+]12CCC(CC1)C(OC(=O)C(O)(c1ccccc1)c1ccccc1)C2.[Br-] (configuration not stated) [CLIDINIUM BROMIDE]
Compound metabolized
